Origin of values: patent US20250312444A1

Biological target: T1, human RXFP1 receptor (human, UniProt Q9HBX9 1-757)
T1 sequence (looked up): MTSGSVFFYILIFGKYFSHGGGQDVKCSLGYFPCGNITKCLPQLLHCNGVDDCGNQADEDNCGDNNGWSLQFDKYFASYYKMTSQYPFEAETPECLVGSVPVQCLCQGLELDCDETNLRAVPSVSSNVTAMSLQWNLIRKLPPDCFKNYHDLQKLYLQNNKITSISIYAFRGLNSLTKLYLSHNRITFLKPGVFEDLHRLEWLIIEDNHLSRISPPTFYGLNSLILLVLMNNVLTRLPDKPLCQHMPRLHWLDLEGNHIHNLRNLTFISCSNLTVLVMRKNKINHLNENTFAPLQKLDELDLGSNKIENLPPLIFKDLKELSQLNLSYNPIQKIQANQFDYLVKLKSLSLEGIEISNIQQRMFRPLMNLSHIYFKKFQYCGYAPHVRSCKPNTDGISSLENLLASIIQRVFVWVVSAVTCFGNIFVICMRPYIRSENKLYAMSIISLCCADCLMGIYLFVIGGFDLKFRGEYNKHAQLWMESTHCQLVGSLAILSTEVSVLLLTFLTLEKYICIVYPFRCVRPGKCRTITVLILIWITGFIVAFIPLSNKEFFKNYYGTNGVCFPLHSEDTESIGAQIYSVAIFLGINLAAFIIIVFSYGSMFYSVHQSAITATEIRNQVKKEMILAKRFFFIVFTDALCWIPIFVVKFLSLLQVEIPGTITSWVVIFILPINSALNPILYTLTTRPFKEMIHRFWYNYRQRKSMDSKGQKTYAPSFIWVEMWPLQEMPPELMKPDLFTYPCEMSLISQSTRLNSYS
Experiment: cell-based or functional assay
Listed below: EC50 (nM), cAMP production in THP1 cells, without HSA values for each entry.
Note: unit nM is implicit; provide only the numeric part.

Below are worked cases with known answers.
0051 (other, Single-chain fusion: anti-HSA VHH, linker, relaxin-2 B chain, linker, relaxin-2 A chain; also called fusion protein 0051; molecule 0051) EVQLLESGGGLVQPGGSLRLSCAASGFTFLTSCMGWFRQAPGKEREGVSSIYTVGGSTFYTNSVKGRFTISRDNSKNTLYLQMNSLRAEDTAVYYCAAGSPARCRLRDPTTFDYWGQGTLVTVSSGGGGQGGGGQGGGGQGGGGQGGGGQSWMEEVIKLCGRELVRAQIAICGMSTWSGGGSGGSGGGQLYSALANKCCHVGCTKRSLARFC = 3.83
0052 (other, Single-chain fusion: anti-HSA VHH, linker, relaxin-2 B chain, linker, relaxin-2 A chain; also called fusion protein 0052) EVQLLESGGGLVQPGGSLRLSCAASGFTFLTSCMGWFRQAPGKEREGVSSIYTVGGSTFYTNSVKGRFTISRDNSKNTLYLQMNSLRAEDTAVYYCAAGSPARCRLRDPTTFDYWGQGTLVTVSSPGPAPGPAPGPAPGPAPGPAPGPAPGPAPGPASWMEEVIKLCGRELVRAQIAICGMSTWSGGGSGGSGGGQLYSALANKCCHVGCTKRSLARFC = 5.22
0065 (other, Single-chain fusion: anti-HSA VHH, linker, relaxin-2 B chain, linker, relaxin-2 A chain; also called fusion protein 0065) EVQLLESGGGLVQPGGSLRLSCAASGFTFLTSCMGWFRQAPGKEREGVSSIYTVGGSTFYTNSVKGRFTISRDNSKNTLYLQMNSLRPEDTAVYYCAAGSPARCRLRDPTTFDYWGQGTLVTVSSGGGGQGGGGQGGGGQGGGGQGGGGQSWMEEVIKLCGRELVRAQIAICGMSTWSGGGSGGSGGGQLYSALANKCCHVGCTKRSLARFC = 2.08

Let us examine a further case.
Item 0064 (other, Single-chain fusion: anti-HSA VHH, linker, relaxin-2 B chain, linker, relaxin-2 A chain; also called fusion protein 0064) EVQLLESGGGLVQPGGSLRLSCAASGNTYLTSCMGWFRQAPGKEREGVSSIYTVGGSTFYTNSVKGRFTISRDNSKNTLYLQMNSLQPEDTAVYYCAAGSPARCRLRDPTTFDYWGQGTLVTVSSGGGGQGGGGQGGGGQGGGGQGGGGQSWMEEVIKLCGRELVRAQIAICGMSTWSGGGSGGSGGGQLYSALANKCCHVGCTKRSLARFC has what recorded EC50 (nM), cAMP production in THP1 cells, without HSA?
8.5
